- TEST TARGET: HLA-B*53:01
- EXPERIMENT DESCRIPTION: IEDB peptide-MHC binding, purified MHC/competitive/fluorescence; filed as Kd, often an IC50 or EC50 that approximates it; bounds were set here for any values at or beyond the usual limits of such assays
- CONDITION INFO: source organism: Vibrio cholerae
MEASURED PARAMETER: Kd

Query :: API: value(readout=Kd, system=HLA-B*53:01) for record TRAPAPFPL
Result :: ≥ 5 µM

###

- TEST TARGET: HLA-A*68:02
- EXPERIMENT DESCRIPTION: IEDB peptide-MHC binding, purified MHC/direct/fluorescence; filed as Kd, often an IC50 or EC50 that approximates it; bounds were set here for any values at or beyond the usual limits of such assays
- CONDITION INFO: source organism: Bacillus anthracis
pKd: −log10 of the molar value.
MEASURED PARAMETER: pKd

Query :: Name the recorded pKd for SQMPPQKIM .
Result :: ≤ 4.70
